experiment: protein stability index of a GFP-peptide fusion (GPS, HEK-293T) (PSI 1-6); higher = more stable; conditions: treatment: DMSO; c terminus: a fixed tail appended;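 further: 24-mer peptide tiles fused after GFP, lentivirally expressed, FACS-sorted into six equal bins by GFP/DsRed ratio, decoded by Illumina sequencing, PSI is the read-weighted mean bin number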
# protein stability index listing for each entry below
Parameter measured: protein stability index

INSERT INTO assay_data (chain_sequence, readout_value) VALUES
  ('LLQRELAQEDSLNKLALQYGCKVA [LYSMD4]', 2.21),
  ('YFEGAPFPHPLWLRDTYKLWVPQP [PWWP2B]', 2.05),
  ('PILKRLERPQDRDTPVQNKRRRSV [CDC25B]', 5.03),
  ('TPGDCPPGRRDEDAGEGIQCSQRM [TMEM175]', 5.15),
  ('ETSVVAQFGIKDVFDNAIRAALIS [RHOBTB2]', 2.28),
  ('FLDLVKPEPVYKLTQRQVNITVQK [HACD3]', 2.56),
  ('NTTEELEALITDPDEMRMQALLIR [FEM1A]', 3.93),
  ('LSDLEDLEEEEEEEEEAEDEEVVA [IRX6]', 5.63),
  ('QYIISDLASARIIEQDAVVPSEWL [GMCL1]', 2.76),
  ('PEASDQEEHLSPLDFLHSANFSLG [RNF180]', 4.66),
  ('PLSKSSPATTVTSPNSTPAKTIDT [SNAP91]', 5.18),
  ('QTVTVEEAAGGESALAPSVFKQAK [MAP2]', 5.21),
  ('AFDYIKQRRSMVSPNFGFMGQLLQ [DUSP5]', 2.14),
  ('PVRAAASSPVTTLTQTMHDLAGLG [CDC25B]', 4.03),
  ('CYSSRPLLCWSVWWALSTCGYFQV [SLC19A2]', 2.53);

====

test: protein stability index of a GFP-peptide fusion (GPS, HEK-293T) (PSI 1-6); higher = more stable; settings: treatment: DMSO; c terminus: a fixed tail appended
protein stability index listing for selected sequences.
Parameter measured: protein stability index

INSERT INTO assay_data (chain_sequence, parameter_measured, readout_value) VALUES
  ('AYTRYLGDLSGGQVLKKIAQKALD [HMOX1]', 'protein stability index', 2.29),
  ('EMLREVDLNGDGTVDFDEFVMMLS [CABP4]', 'protein stability index', 4.06),
  ('APWWFWLSLTGVSLAGALGVKFVG [POMT2]', 'protein stability index', 2.48),
  ('SLHVDDRERMELLEEAKKMEMAKF [RIPK4]', 'protein stability index', 4.92),
  ('LRPQVVTDDDGQAPEAKDGSSFSG [APMAP]', 'protein stability index', 5.22),
  ('SPSGAALPLPLSLAPPPLPLPAAA [ZBTB22]', 'protein stability index', 3.92),
  ('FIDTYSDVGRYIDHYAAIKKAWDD [FBXO3]', 'protein stability index', 2.6),
  ('KSLSIQYLELDRLVWRNSIRSSFI [FBXO39]', 'protein stability index', 2.51),
  ('STDIGALMYPSYTFSGDVQLAQDD [MMP1]', 'protein stability index', 4.9),
  ('IQGNIEYSCPATNECEITKRRRKS [ESRRG]', 'protein stability index', 4.85),
  ('WEELLTMKVEAKSHLQWQESRLKR [ZSCAN9]', 'protein stability index', 3.65),
  ('LELLEEVLALGLRTDVGITHQHWQ [RSAD1]', 'protein stability index', 2.3),
  ('MAEESSCTRDCMSFSVLNWDQVSR [TENT5C]', 'protein stability index', 2.71),
  ('ERSVVTRDIRCSEDEKLCDPNTRP [ADAMTSL2]', 'protein stability index', 5.06),
  ('PLDDALLSFAHANCTLIISYQKPK [DPCD]', 'protein stability index', 2.17),
  ('GTQPRATKHKCRQLTKASLKPRGC [SPACA9]', 'protein stability index', 3.81),
  ('VEQGERALERRRRALQEEERAAAQ [ZBED3]', 'protein stability index', 5.5),
  ('SVPMNGTSIQWKNHDQNNHNTDRS [EDNRA]', 'protein stability index', 4.5),
  ('ATTAATAAATTTTTTSAATATTAP [SNAP91]', 'protein stability index', 5.36),
  ('YVRRLDFFEKPDYDYLRKLFTDLF [CSNK1G3]', 'protein stability index', 2.45),
  ('IAKHLKGRLGKQCRERWHNHLNPE [MYBL2]', 'protein stability index', 2.25),
  ('INCKGRSKSNLGWTPLHLACYFGH [OSBPL1A]', 'protein stability index', 2.63),
  ('GNIIAHASTTRLYLRKGRGETRIC [RAD51]', 'protein stability index', 3.11),
  ('VPRTEAPAPASSTPQEPWPGPTAP [PDLIM7]', 'protein stability index', 4.98),
  ('ELNDRFANFIEKVRFLEQQNAALR [PRPH]', 'protein stability index', 2.39),
  ('IHLSAPCIYSEVMEALKLQPGLSF [PCMTD1]', 'protein stability index', 2.33),
  ('EEKKLRRSQHARKETEFLRLKRTR [STK38L]', 'protein stability index', 3.01),
  ('STATSITLTWDSGNPEPVSYYIIQ [PTPRD]', 'protein stability index', 2.83),
  ('VTLEASRENSKPRAILKPRKVCVG [PPP2R2B]', 'protein stability index', 3.54),
  ('PASPERDYSPYYKTIEELRDKILT [KRT13]', 'protein stability index', 3.35),
  ('GAFDSFLLRFGVPSPSTLEPHPRP [TNXB]', 'protein stability index', 2.99),
  ('KNKMMVCQVGGIEALVRTVLRAGD [CTNNB1]', 'protein stability index', 2.51),
  ('QETVLVEERRVVHASGDASYSAGD [EPB41L3]', 'protein stability index', 5.28);

Entry source: the supplement of paper PMC10567573
